# test-details: Mouse oral pharmacokinetics
# Assay type: in vivo, BALB/c mice
# condition-info: BALB/c, mouse, plasma, po, 100 mg/kg, BALB/c mice, single oral doses of 2, 10, 50 and 100 mg/kg; read-out: t1/2, range over oral doses
# Description: To assess the Oral and Intravenous pharmacokinetic profile of Example 13, pharmacokinetics (PK) of Example 13 was characterized in BALB/c mice following single intravenous (i.v.) dose of 2 mg/kg and single escalating oral doses of 2, 10, 50 and 100 mg/kg, respectively. This study was performed following all ethical practices as laid down in the guidelines for animal care (Registration number No. 1852/PO/Rc/S/16/CPCSEA). […] The plasma (mice) samples were analyzed by LC-MS/MS. […]
endpoint-name: half-life

| molecule | endpoint-name | observed-value |
| --- | --- | --- |
| CN1C(=O)Cc2ccc(F)c(CCNCCC3CN(c4ccc5c(n4)NC(=O)CO5)C(=O)O3)c21 (single isomer, unassigned) | half-life | 1.4 to 5.6 h |

====

Catalogue of molecules with associated pIC50
# measurement-target: E. coli DNA gyrase (Escherichia coli, UniProt P0AES4+P0AES6)
# test-details: biochemical
# condition-info: supercoiling assay
pIC50: −log10 of the molar value.

| molecule | pIC50 |
| --- | --- |
| CN1C(=O)Cc2ccc(F)c(C(O)CNCCC3CN(c4ccc5c(n4)NC(=O)CO5)C(=O)O3)c21 (stereo not drawn) | 6.87 |
| CN1C(=O)Cc2ccc(F)c(CNCCCC3CN(c4ccc5c(n4)NC(=O)CO5)C(=O)O3)c21 (single isomer, unassigned) [Example 10] | 6.97 |
| CN1C(=O)Cc2ccc(F)c(CCNCCC3CN(c4ccc5c(n4)NC(=O)CO5)C(=O)O3)c21 (single isomer, unassigned) [Example 14] | 7.00 |

====

# Tested on: E. coli ATCC 25922
Lab note: compare MIC with 1 µg/mL, writing label 1 if less and label 0 if equal or more.

| compound | category |
| --- | --- |
| Cc1ncc(N2CC(CCNCc3c(F)ccc4c3N(C)C(=O)C4)OC2=O)cc1C#N (stereo not shown) | label 0 |
| O=C(O)c1cn(C2CC2)c2cc(N3CCNCC3)c(F)cc2c1=O [Ciprofloxacin, reference compound] | label 1 |
| CN1C(=O)C(C)(C)c2ccc(F)c(CNCCC3CN(c4ccc5c(n4)NC(=O)CO5)C(=O)O3)c21 (stereo not shown) | label 0 |
| CN1C(=O)Cc2ccc(F)c(CCNCCC3CN(c4ccc5c(n4)NC(=O)CO5)C(=O)O3)c21 (racemic) [Example 11] | label 1 |
| CN1C(=O)Cc2ccc(F)c(CNCCCC3CN(c4ccc5c(n4)NC(=O)CO5)C(=O)O3)c21 (single isomer, unassigned) [Example 9] | label 1 |
